SYSTEM_NAME: T1, human melanocortin-4 receptor (hMC4-R) (human, UniProt P32245 1-332)
T1 construct: whole, on cells; membranes prepared from hMC4-R cells were used; also called Melanocortin Receptor 4
ASSAY_DETAILS: 125I-NDP-α-MSH competition, hMC4-R membranes
Experimental: The competitive inhibition binding assay was conducted using membranes prepared from hMC3-R, hMC4-R, hMC5-R, and B-16 mouse melanoma cells (containing MC1-R) using 0.4 nM ¹²⁵I-NDP-alpha-MSH (New England Nuclear, Boston, Mass., USA) in 50 mM HEPES buffer containing 1 mM MgCl₂, 2 mM CaCl₂, and 5 mM KCl, at pH 7.2. […] The filter was dried and counted in a gamma counter for remaining radioactivity bound to the membranes. […]
Square brackets hold non-standard residues; d marks the D form. Ends that are not written are not given here. Nle = CCCC[C@H](N)C(=O)O
READOUT_NAME: % Inhibition at 1 µM (%)

Example cases with answers are listed next.
BINDER	READOUT_NAME	UNIT_STRING	MEAS_VALUE
YV[Nle]CH[dF]RWDRF-NH2 (also: oxorhenium(V) N3S1 chelate: C4 SG + backbone N of V2, X3, C4, bridge at 4 via Re(V)=O, other end not in the chain) [metallopeptide 5-8]	% Inhibition at 1 µM	%	86
YV[Nle]GH[dF]RWCRF-NH2 (also: oxorhenium(V) N3S1 chelate: C9 SG + backbone N of R7, W8, C9, bridge at 9 via Re(V)=O, other end not in the chain) [metallopeptide 5-3]	% Inhibition at 1 µM	%	97
YV[Nle]GH[dF]CWDRF-NH2 (also: oxorhenium(V) N3S1 chelate: C7 SG + backbone N of H5, F6, C7, bridge at 7 via Re(V)=O, other end not in the chain) [metallopeptide 5-5]	% Inhibition at 1 µM	%	26
YV[Nle]GH[dF]RWDRC-NH2 (also: oxorhenium(V) N3S1 chelate: C11 SG + backbone N of D9, R10, C11, bridge at 11 via Re(V)=O, other end not in the chain) [metallopeptide 5-1]	% Inhibition at 1 µM	%	95

[I] YV[Nle]GC[dF]RWDRF-NH2 (also: oxorhenium(V) N3S1 chelate: C5 SG + backbone N of X3, G4, C5, bridge at 5 via Re(V)=O, other end not in the chain) [metallopeptide 5-7]
[II] YV[Nle]GH[dF]RCDRF-NH2 (also: oxorhenium(V) N3S1 chelate: C8 SG + backbone N of F6, R7, C8, bridge at 8 via Re(V)=O, other end not in the chain) [metallopeptide 5-4]
[III] YVXGHFRWDRF (Nle 3 (X in letters); D-Phe 6; C-terminal amide, not complexed to Re) [[Nle3, D-Phe6]-γ-MSH parent polypeptide Tyr-Val-Nle-Gly-His-D-Phe-Arg-Trp-Asp-Arg-Phe-NH2]
[IV] YV[Nle]GHCRWDRF-NH2 (also: oxorhenium(V) N3S1 chelate: C6 SG + backbone N of G4, H5, C6, bridge at 6 via Re(V)=O, other end not in the chain) [metallopeptide 5-6]
Please order the records by their reported % Inhibition at 1 µM, lowest number first. Hello, could you send the labels back in the order asked? Thank you.
IV, II, I, III
(IV: 4%, II: 18%, I: 69%, III: 99%)

meta.source: patent US20050282739A1
